TARGET ENTITY: C-Met-Rluc (R. reniformis, UniProt P08581 25-1390)
Sequence (P08581 25-1390): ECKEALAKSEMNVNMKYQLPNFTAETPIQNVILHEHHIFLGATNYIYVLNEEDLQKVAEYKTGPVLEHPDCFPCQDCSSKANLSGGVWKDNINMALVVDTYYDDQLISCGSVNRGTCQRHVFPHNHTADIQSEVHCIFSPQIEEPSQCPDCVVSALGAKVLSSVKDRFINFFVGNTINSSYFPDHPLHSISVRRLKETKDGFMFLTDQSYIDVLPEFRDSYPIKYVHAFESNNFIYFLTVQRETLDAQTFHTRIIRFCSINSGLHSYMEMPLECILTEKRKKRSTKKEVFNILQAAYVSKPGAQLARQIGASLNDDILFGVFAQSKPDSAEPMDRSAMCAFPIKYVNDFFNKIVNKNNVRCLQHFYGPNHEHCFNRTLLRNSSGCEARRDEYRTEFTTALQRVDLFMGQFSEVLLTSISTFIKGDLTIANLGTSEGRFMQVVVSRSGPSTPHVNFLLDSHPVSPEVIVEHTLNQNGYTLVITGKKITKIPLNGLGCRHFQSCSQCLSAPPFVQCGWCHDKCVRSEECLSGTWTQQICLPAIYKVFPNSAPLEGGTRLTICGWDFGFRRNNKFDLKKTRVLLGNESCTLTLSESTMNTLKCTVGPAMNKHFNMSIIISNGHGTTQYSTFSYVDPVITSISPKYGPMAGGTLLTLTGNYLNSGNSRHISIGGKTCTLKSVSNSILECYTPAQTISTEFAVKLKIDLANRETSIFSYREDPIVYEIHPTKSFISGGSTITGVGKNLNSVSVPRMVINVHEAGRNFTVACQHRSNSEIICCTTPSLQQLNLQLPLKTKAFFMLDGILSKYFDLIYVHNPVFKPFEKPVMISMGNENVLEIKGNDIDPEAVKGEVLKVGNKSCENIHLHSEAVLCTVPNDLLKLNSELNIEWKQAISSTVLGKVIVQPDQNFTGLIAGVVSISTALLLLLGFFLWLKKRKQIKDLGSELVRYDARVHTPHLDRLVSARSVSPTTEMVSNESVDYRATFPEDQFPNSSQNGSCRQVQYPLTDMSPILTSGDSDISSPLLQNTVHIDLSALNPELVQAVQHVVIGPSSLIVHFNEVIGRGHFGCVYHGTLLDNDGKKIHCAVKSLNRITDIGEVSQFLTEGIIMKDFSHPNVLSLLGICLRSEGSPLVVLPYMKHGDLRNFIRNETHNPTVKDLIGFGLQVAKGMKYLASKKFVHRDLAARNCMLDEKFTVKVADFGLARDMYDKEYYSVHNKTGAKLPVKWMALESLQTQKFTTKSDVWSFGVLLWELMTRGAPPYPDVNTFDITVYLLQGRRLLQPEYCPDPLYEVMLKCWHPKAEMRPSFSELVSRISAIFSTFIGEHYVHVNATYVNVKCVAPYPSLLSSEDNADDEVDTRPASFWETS
TEST PROTOCOL: cell-based or functional assay
Listed here are binders together with their documented inhibition of HGF induced BRET signal, c-Met activation model.
Number in %, nothing else.

Field: example entries. Status: answers known.
{"BINDER": "[224G11] [MH chim] (antibody, V domains shown) VH: EVQLQQSGPELVKPGASVKISCKTSGYIFTAYTMHWVRQSLGESLDWIGGIKPNNGLANYNQKFKGKATLTVDKSSSTAYMDLRSLTSEDSAVYYCARSEITTEFDYWGQGTALTVSS VL: DIVLTQSPASLAVSLGQRATISCRASESVDSYANSFMHWYQQKPGQPPKLLIYRASNLESGIPARFSGSGSRTDFTLTINPVEADDVATYYCQQSKEDPLTFGSGTKLEMKR", "UNITS": "%", "ASSAY VALUE": 59.7}
{"BINDER": "[224G11] [TH7 Hz3] (antibody, human IgG1, V domains shown) VH: QVQLVQSGAEVKKPGASVKVSCKASGYIFTAYTMHWVRQAPGQGLEWMGWIKPNNGLANYAQKFQGRVTMTRDTSISTAYMELSRLRSDDTAVYYCARSEITTEFDYWGQGTLVTVSS VL: DIVMTQSPDSLAVSLGERATINCKSSESVDSYANSFLHWYQQKPGQPPKLLIYRASTRESGVPDRFSGSGSGTDFTLTISSLQAEDVAVYYCQQSKEDPLTFGGGTKVEIKR", "UNITS": "%", "ASSAY VALUE": 57.9}
{"BINDER": "[224G11] [TH7 Hz2] (antibody, human IgG1, V domains shown) VH: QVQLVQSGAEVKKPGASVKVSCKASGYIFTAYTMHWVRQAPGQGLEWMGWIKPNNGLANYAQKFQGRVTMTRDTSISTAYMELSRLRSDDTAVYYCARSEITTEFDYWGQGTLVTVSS VL: DIVMTQSPDSLAVSLGERATINCKSSESVDSYANSFMHWYQQKPGQPPKLLIYRASTRESGVPDRFSGSGSGTDFTLTISSLQAEDVAVYYCQQSKEDPLTFGGGTKVEIKR", "UNITS": "%", "ASSAY VALUE": 41.8}

Okay, next one:
Input: Look up inhibition of HGF induced BRET signal, c-Met activation model: [224G11] [MUP9H chim] (antibody, V domains shown) VH: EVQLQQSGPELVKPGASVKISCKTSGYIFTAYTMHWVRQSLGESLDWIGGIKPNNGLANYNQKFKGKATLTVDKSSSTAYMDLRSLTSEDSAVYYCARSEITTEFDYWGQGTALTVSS VL: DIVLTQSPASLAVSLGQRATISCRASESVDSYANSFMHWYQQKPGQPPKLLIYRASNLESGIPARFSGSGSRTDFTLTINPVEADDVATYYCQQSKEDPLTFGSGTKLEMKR
Output: 64.4
